test system: KB cells; assay: Cytotoxicity on KB cells; type: cell-based; conditions: KB cells, [10^−5], second value (cell beside the first)
Class YES: KB cells Cytotoxicity % inhibition à [10^−5] at least 10%. Class NO: KB cells Cytotoxicity % inhibition à [10^−5] below 10%.

Record excerpt, results attached:
> print(dat)
                                   compound  system.under.test  class
1  C=C(OCC)c1ccc(-c2ccc(C(=C)OCC)nn2)nn1 [Compound 24]           KB cells    YES
2  Cc1cccc(-c2ccc(-c3ccc(-c4cccc(C)n4)nn3)nn2)n1 [Compound 2]           KB cells    YES
3  Cc1cccc(-c2ccc(-c3ccccn3)nn2)n1 [Compound 44]           KB cells    YES

Kindly determine if KB cells Cytotoxicity % inhibition à [10^−5] recorded for S=c1ccc(-c2ccccn2)n[nH]1 [Compound 10, 6-(pyridin-2-yl)-2H-pyridazin-3-thione] is above or exactly 10%.
YES

# check: KB cells Cytotoxicity % inhibition à [10^−5] of O=C(O)c1cccc(-c2ccc(-c3ccccn3)nn2)n1 [Compound 45] is greater than or equal to 10%
NO
